# test-system: T1, EnfR wild-type (TON_1525) (Thermococcus onnurineus NA1, UniProt B6YTS4 1-146)
# T1 sequence: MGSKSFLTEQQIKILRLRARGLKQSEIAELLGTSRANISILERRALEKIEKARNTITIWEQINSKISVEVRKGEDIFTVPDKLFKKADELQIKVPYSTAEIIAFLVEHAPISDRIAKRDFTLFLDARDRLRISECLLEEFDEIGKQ
# test-name: ITC; 25 C; N = 0.94; EMSA: 10 mM Tris pH 7.4, 200 mM KCl, 2 mM DTT, 0.2 mM EDTA, 37 C 20 min; ITC: 10 mM Tris-HCl pH 7.4, 200 mM KCl, 1 mM TCEP, 0.2 mM EDTA, 25 C; footprint: 20 mM
# measurement-context: protein: recombinant; tags: C-terminal His6, non-cleavable; chain copies: 2; blunt
measured-endpoint: Kd (nM)
A number alone suffices; assume nM.

Q: Request the reported Kd associated with 36-bp target, unlabelled (ITC) (dsDNA) DNA 1: CCATCTTAAAATCTTTTTGTTTACATTATACGAGGT DNA 2: ACCTCGTATAATGTAAACAAAAAGATTTTAAGATGG
A: 61.8
